Hi there, I'd appreciate the recorded viability, T/C for every entry that follows.
# Tested on: 425362-245-T-J1 tumor spheroids, viability % test/control;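 further: spheroids exposed to agents for 7 days; 100% = DMSO vehicle control viability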
# ASSAY: Anticancer human tumor 425362-245-T-J1 patient-derived melanoma cell line growth inhibition
# REPORTED CONDITIONS: second compound 0.3 µM; first compound 0.0949 µM; active compounds read low; spheroids with HUVEC and MSC
Number only, in %; omit the unit.

According to the records, this molecule Cc1sc2c(c1C)C(c1ccc(Cl)cc1)=NC(CC(=O)Nc1ccc(O)cc1)c1nnc(C)n1-2 (centres undefined) + CC[C@@]1(O)C(=O)OCc2c1cc1n(c2=O)Cc2cc3c(CN(C)C)c(O)ccc3nc2-1 displays viability, T/C of 1.38

Value of viability, T/C reported for the molecule Cn1ncnc1[C@H]1c2n[nH]c(=O)c3cc(F)cc(c23)N[C@@H]1c1ccc(F)cc1 + CC[C@@]1(O)C(=O)OCc2c1cc1n(c2=O)Cc2cc3c(CN(C)C)c(O)ccc3nc2-1 is 1.79

// viability, T/C value for O=C(c1cc(Cc2n[nH]c(=O)c3ccccc23)ccc1F)N1CCN(C(=O)C2CC2)CC1 + CC[C@@]1(O)C(=O)OCc2c1cc1n(c2=O)Cc2cc3c(CN(C)C)c(O)ccc3nc2-1 : 2.55

Entry CNCc1ccc(-c2cc(-c3nc(-c4ccc(S(=O)(=O)C(C)C)cc4)cnc3N)on2)cc1 + CC[C@@]1(O)C(=O)OCc2c1cc1n(c2=O)Cc2cc3c(CN(C)C)c(O)ccc3nc2-1 ; viability, T/C = 1.95
